Cited source: patent US4283394A

System: i.p. implanted L-1210 leukemia
Experiment: Antitumor activity against i.p. implanted L-1210 leukemia in mice
Assay type: in vivo
Details: Mus musculus, L1210, ip, read-out: Percent T/C (mean survival days treated/control × 100), 100 mg/kg/day × 5 i.p.
Readout Kind: response vs control in vivo at 100 mg/kg (%)
Answers are plain numbers, in %.

Some solved cases for reference:
Molecule	Observed
C[C@]12CCC(=O)C=C1CC[C@@H]1[C@@H]2[C@@H](O)C[C@@]2(C)[C@H]1CC[C@]2(O)C(=O)COP(=O)(O)OC[C@H]1O[C@@H](n2ccc(N)nc2=O)[C@@H](O)[C@@H]1O	154
C[C@]12C=CC(=O)C=C1CC[C@@H]1[C@@H]2C(=O)C[C@@]2(C)[C@H]1CC[C@]2(O)C(=O)CO[P+]([O-])(O)OC[C@H]1O[C@@H](n2ccc(N)nc2=O)[C@@H](O)[C@@H]1O (stereo partly shown)	124
Nc1ccn([C@@H]2O[C@H](COP(=O)(O)O)[C@@H](O)[C@@H]2O)c(=O)n1 [Ara-CMP, reference compound]	122

# ---- query molecule ----
Q) Give the measured response vs control in vivo at 100 mg/kg for C[C@]12C=CC(=O)C=C1CC[C@@H]1[C@@H]2[C@@H](O)C[C@@]2(C)[C@H]1CC[C@]2(O)C(=O)CO[P+]([O-])(O)OC[C@H]1O[C@@H](n2ccc(N)nc2=O)[C@@H](O)[C@@H]1O (stereo partly shown)
A) 136

###

Task for the reader: assign each of the following molecules its reported Mean Survival Days, Treated.
Tested on: i.p. implanted L-1210 leukemia
Experiment: Antitumor activity against i.p. implanted L-1210 leukemia in mice
Assay type: in vivo
Conditions: 100 mg/kg/day × 5 i.p.
Method: The ascites cell form of L-1210 leukemia, grown in C3 D2 F1 /J female mice (supplied by Jackson Labs) were employed. The assay was performed according to National Cancer Institute (NCI) protocol 1.100 described by R. I. Gerau et al., Cancer Chemother. Rep. (Part 3) 3: (2): 7, 47 (1972) with a slight modification. […] Testing was followed as described in the NCI protocol and evaluated by recording the survival time according to the formula appearing in protocol 11.
One number for each entry, in days.

Some solved cases for reference:
Molecule	Experimental Target	Mean Survival Days, Treated (days)
C[C@]12C=CC(=O)C=C1CC[C@@H]1[C@@H]2C(=O)C[C@@]2(C)[C@H]1CC[C@]2(O)C(=O)CO[P+]([O-])(O)OC[C@H]1O[C@@H](n2ccc(N)nc2=O)[C@@H](O)[C@@H]1O (stereo partly shown)	i.p. implanted L-1210 leukemia	10.88
C[C@]12CCC(=O)C=C1CC[C@@H]1[C@@H]2[C@@H](O)C[C@@]2(C)[C@H]1CC[C@]2(O)C(=O)COP(=O)(O)OC[C@H]1O[C@@H](n2ccc(N)nc2=O)[C@@H](O)[C@@H]1O	i.p. implanted L-1210 leukemia	14.25
C[C@]12C=CC(=O)C=C1CC[C@@H]1[C@@H]2[C@@H](O)C[C@@]2(C)[C@H]1CC[C@]2(O)C(=O)CO[P+]([O-])(O)OC[C@H]1O[C@@H](n2ccc(N)nc2=O)[C@@H](O)[C@@H]1O (stereo partly shown)	i.p. implanted L-1210 leukemia	11.74

Q) Give the measured Mean Survival Days, Treated for Nc1ccn([C@@H]2O[C@H](COP(=O)(O)O)[C@@H](O)[C@@H]2O)c(=O)n1 [Ara-CMP, reference compound]
A) 11.00
